KM overview
B1: glmS ribozyme (parent)
chain: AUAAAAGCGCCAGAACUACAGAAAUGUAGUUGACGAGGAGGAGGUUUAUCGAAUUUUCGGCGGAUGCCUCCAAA

# Variants of: B1
# protocol.text: KM; higher = weaker cofactor use; RNA array
# experimental.context: with glucosamine-6-phosphate
Entry rule: numbers only, all in µM.

Example results:
| sequence.variant | u | KM |
| --- | --- | --- |
| U49A A53G | µM | 3410 |
| A39C G43U C68U | µM | 1780 |
| U54C | µM | 2290 |
| A15G G29C | µM | 3540 |
| G13U A14U | µM | 2270 |

Lookup: May I ask what KM has been recorded for G66U C71A ?
Found: 1020

Lookup: What does the record list as KM for A6C U65G ?
Found: 342

Lookup: What value of measured KM is listed for G29A A39U ?
Found: 3440

Lookup: Name the recorded KM for U47A C58G .
Found: 1740

Lookup: May I ask what KM has been recorded for A12U U31C ?
Found: 2070
